target: HKU4 HR2 peptide (HKU4), A3EX94; experiment: peptide ELISA
Sequence (A3EX94 1228-1249 limits assumed): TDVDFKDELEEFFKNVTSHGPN
observed.property: EC50 (µg/mL)
Response body: numeric value in µg/mL, unit text excluded.

Output EC50 of hr2.021 (antibody, V domains shown) VH: QVQLVQSGAEVKKPGASVKVSCKASEAIFSGSYLHWVRQAPGQGLEWMGIITPSGDKTFYAQRFQGRLTMTRDTSTNTLHMHLSGLNSEDTAMYYCARQADKGGWDYWGQGTLVTVSS VL: EIVLTQSPGTLSLSPGERATLSCRASQSVTSNYVAWYQQKPGQAPRLLIYGASTRATGIPDRFSGGGSGTDFTLTITRLEPEDFAVYYCQQYGSSPPTFTFGPGTKVDIK
0.021

Give the value of EC50 reported for the following: hr2.012 (antibody, V domains shown) VH: QVQLVQSGAEVKKPGASVKVSCKASGYTFTSHYIHWVRQAPGQGLEWMGIIKPSGGNTIYAQTFQGRVTMTRDTSTSTVYMELRSLTSDDTAVYYCARDQDHGLQRWGQGTLVTVSS VL: QSVLTQPPSVSAPPGQKVTISCSGSSSNIGNNFVSWYQQLPGTAPKLLIYDNIERPSGIPDRFSGSRSGTSATLGITGLQTGDEADYYCGTWDTSLGAWVFGGGTKVTVL
0.0184

Return value of EC50 for input hr2.016 (antibody, V domains shown) VH: EVQLLESGGGLVQPGGSLRLSCAASGFMFSKYAMTWVRQTPGKGLEWVSVISGGGGSTYYADSVKGRFTISRDNSKNTLYLQMNSLRAEDTAVYYCAKLLVVFVIDYWGQGALVTVSS VL: EIVLTQSPGTLSLSPGERATLFCRASQSVSSNLAWYQQKPGRAPRLLISGASSRATGIPDRFSGSGSGTDFTLTISRLEPEDFAVYYCQQYGSSPPTFGQGTKVEIK , no commentary.
0.00744
